Reference source for all entries: ChEMBL document CHEMBL1147800

system: Osteoblast; experiment: Increase in ALP activity in mouse primary osteoblasts at 1 uM relative to control; format: functional
outcome measure: Activity
Form entry: enter the amount, then its unit.

What is its Activity for Osteoblast? Entry: COc1ccc(-c2cc(=O)c3c(O)cc(O)cc3o2)cc1-c1c(OC)cc(O)c2c(=O)cc(-c3ccc(O)cc3)oc12
101.1%

Recall the recorded Activity for COc1ccc(-c2cc(=O)c3c(O)cc(O)cc3o2)cc1-c1c(O)cc(O)c2c(=O)cc(-c3ccc(O)cc3)oc12 with Osteoblast and state it.
100.9%

GET /values?readout=Activity&system=Osteoblast&item= COc1cc(O)c2c(=O)cc(-c3ccc(OC)c(-c4c(OC)cc(O)c5c(=O)cc(-c6ccc(O)cc6)oc45)c3)oc2c1
108.4%

Request: Activity, test system Osteoblast, entry COc1ccc(-c2cc(=O)c3c(O)cc(OC)c(-c4cc(-c5cc(=O)c6c(O)cc(OC)cc6o5)ccc4OC)c3o2)cc1
105.1%

# returns recorded Activity (system: Osteoblast) for COc1cc(O)c2c(=O)cc(-c3ccc(OC)c(-c4c(O)cc(O)c5c(=O)cc(-c6ccc(O)cc6)oc45)c3)oc2c1
116.8%

Lookup: Activity / Osteoblast / COc1ccc(-c2cc(=O)c3c(O)cc(O)c(-c4cc(-c5cc(=O)c6c(O)cc(OC)cc6o5)ccc4OC)c3o2)cc1
121.1%

Identify the measured Activity of O=c1c(-c2ccc(O)cc2)coc2cc(O)ccc12 for Osteoblast.
107.8%
